Where these numbers come from: patent US12655184B2

# Test Method Notes: solubility in phosphate buffer with/without 0.9% NaCl, pH serially lowered with acetic acid, concentration remaining in solution
# Format: physicochemical
# Applied Conditions: pH 4, PBS with 0.9% NaCl, pH 4; read-out: Solubility pH 4
# Method: In further solubility testing, two tubes of 1.1 mg peptide for each of the four candidate peptides target was dissolved into 1 mL phosphate buffer (pH 10) (with and without 0.9% NaCl). The peptide solutions were subsequently stored at 4° C. for several hours to dissolve the peptides thoroughly. Following centrifugation, the peptide concentration that remained in solution was measured. […]
Ends that are not written are not given here.
Answer each item with its documented solubility.
Could you give me the number in µg/mL? Just the number is fine.

Notebook: GEDLQQEDGPTGEPQQEDDEFL [SEQ ID NO: 29] , solubility read as 687

Quick note, solubility for NEGIEITEVTAPPEDNPVEDSQ [SEQ ID NO: 31] landed at 806

Recorded result, DMEEMMSEQENPDSSEPVVEDE [SEQ ID NO: 30] , solubility: 496

Just so you know, measured solubility for DSQVIVEEVSIFPVEEQQEVPPD [SEQ ID NO: 32] came out at 382

====

# Test Method Notes: solubility in phosphate buffer with/without 0.9% NaCl, pH serially lowered with acetic acid, concentration remaining in solution
# Type: physicochemical
# Applied Conditions: pH 5.5, PBS with 0.9% NaCl, pH 5.5; read-out: Solubility pH 5.5
Ends that are not written are not given here.
For each record, write down the corresponding solubility.
Write the value in µg/mL as a bare number.

Reported solubility of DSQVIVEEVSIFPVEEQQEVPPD [SEQ ID NO: 32] : 412

According to the records, this sequence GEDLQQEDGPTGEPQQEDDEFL [SEQ ID NO: 29] displays solubility of 695

# solubility of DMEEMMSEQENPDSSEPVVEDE [SEQ ID NO: 30] = 510

Lookup result for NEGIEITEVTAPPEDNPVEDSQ [SEQ ID NO: 31] ; measured solubility: 826

====

# Test Method Notes: solubility in phosphate buffer with/without 0.9% NaCl, pH serially lowered with acetic acid, concentration remaining in solution
# Type: physicochemical
# Applied Conditions: pH 6.5, PBS with 0.9% NaCl, pH 6.5; read-out: Solubility pH 6.5
Ends that are not written are not given here.
Reported Endpoint: solubility
Please don't drop the unit; write it after the number.

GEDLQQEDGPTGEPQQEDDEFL [SEQ ID NO: 29] yielded solubility of 706 µg/mL

Looking up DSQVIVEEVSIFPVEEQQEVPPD [SEQ ID NO: 32] , I found its solubility recorded as 406 µg/mL

Noted for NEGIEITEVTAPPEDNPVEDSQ [SEQ ID NO: 31] : its solubility reads 831 µg/mL

# sequence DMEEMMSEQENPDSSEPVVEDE [SEQ ID NO: 30] ; its solubility = 498 µg/mL

====

# Test Method Notes: solubility tests in DMSO, normal saline and 0.2 M NaCl by visual examination
# Assay type: physicochemical
# Applied Conditions: normal saline, 0.154 M NaCl
Ends that are not written are not given here.
Reported Endpoint: Solubility (dissolved Yes/No), 0.154M Sodium (NaCl)

# Sequence Record, Val
data = [
    ("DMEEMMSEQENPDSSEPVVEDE [SEQ ID NO: 30]", "Yes"),
    ("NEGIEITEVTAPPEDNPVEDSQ [SEQ ID NO: 31]", "No"),
    ("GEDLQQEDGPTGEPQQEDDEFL [SEQ ID NO: 29]", "Yes"),
    ("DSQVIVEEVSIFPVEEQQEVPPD [SEQ ID NO: 32]", "No"),
]

====

# Test Method Notes: solubility by visual examination in ultrapure water, PBS and DMSO
# Assay type: physicochemical
# Applied Conditions: pH 7.4, 0.1 M PBS pH 7.4, visual examination; read-out: Solubility, PBS (pH 7.4)
Ends that are not written are not given here.
Reported Endpoint: solubility

// solubility lookup, sequence = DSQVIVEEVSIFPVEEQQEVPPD [SEQ ID NO: 32] , result: < 100 µg/mL

// solubility lookup, sequence = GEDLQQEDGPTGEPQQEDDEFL [SEQ ID NO: 29] , result: > 100 µg/mL

What the record says about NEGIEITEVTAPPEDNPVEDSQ [SEQ ID NO: 31] : solubility is < 100 µg/mL

Consider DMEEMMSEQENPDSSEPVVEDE [SEQ ID NO: 30] . Its measured solubility is > 100 µg/mL

====

# Test Method Notes: solubility in phosphate buffer with/without 0.9% NaCl, pH serially lowered with acetic acid, concentration remaining in solution
# Type: physicochemical
# Applied Conditions: pH 6.5, PBS without NaCl, pH 6.5; read-out: Solubility pH 6.5
Ends that are not written are not given here.
Reported Endpoint: solubility (µg/mL)
Kindly answer with a numeric value in µg/mL, unit omitted.

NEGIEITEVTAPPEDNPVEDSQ [SEQ ID NO: 31] has a reported solubility of 769

Value of solubility reported for the sequence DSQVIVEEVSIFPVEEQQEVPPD [SEQ ID NO: 32] is 407

Noted for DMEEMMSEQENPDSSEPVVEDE [SEQ ID NO: 30] : its solubility reads 673

Record summary for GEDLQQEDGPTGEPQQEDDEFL [SEQ ID NO: 29] : reported solubility = 753

====

# Test Method Notes: solubility in phosphate buffer with/without 0.9% NaCl, pH serially lowered with acetic acid, concentration remaining in solution
# Type: physicochemical
# Applied Conditions: pH 7.5, PBS without NaCl, pH 7.5; read-out: Solubility pH 7.5
# Method: In further solubility testing, two tubes of 1.1 mg peptide for each of the four candidate peptides target was dissolved into 1 mL phosphate buffer (pH 10) (with and without 0.9% NaCl). The peptide solutions were subsequently stored at 4° C. for several hours to dissolve the peptides thoroughly. Following centrifugation, the peptide concentration that remained in solution was measured. […]
Ends that are not written are not given here.
Reported Endpoint: solubility (µg/mL)
Report the value in µg/mL with no unit label.

Lab book: solubility of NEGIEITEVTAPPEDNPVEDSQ [SEQ ID NO: 31] noted as 812

solubility recorded for this sequence, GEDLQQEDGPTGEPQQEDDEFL [SEQ ID NO: 29] , is 757

The reported value for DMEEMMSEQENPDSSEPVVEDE [SEQ ID NO: 30] in terms of solubility is 712

Lab book: solubility of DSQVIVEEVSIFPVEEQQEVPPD [SEQ ID NO: 32] noted as 415

====

# Test Method Notes: solubility in phosphate buffer with/without 0.9% NaCl, pH serially lowered with acetic acid, concentration remaining in solution
# Assay type: physicochemical
# Applied Conditions: pH 10, PBS without NaCl, pH 10; read-out: Solubility pH 10
Ends that are not written are not given here.
Could you please report measured solubility for the items listed next?
Supply the numeric figure in µg/mL, leaving out any unit text.

For reference, reported solubility for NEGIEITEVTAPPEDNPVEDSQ [SEQ ID NO: 31] stands at 849

So, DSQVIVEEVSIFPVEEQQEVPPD [SEQ ID NO: 32] ? Its solubility was 419

Recorded result, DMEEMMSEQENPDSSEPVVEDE [SEQ ID NO: 30] , solubility: 726

Recorded result, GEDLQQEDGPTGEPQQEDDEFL [SEQ ID NO: 29] , solubility: 765

====

Please provide measured solubility for the entries that follow.
# Test Method Notes: solubility in phosphate buffer with/without 0.9% NaCl, pH serially lowered with acetic acid, concentration remaining in solution
# Type: physicochemical
# Applied Conditions: pH 8.5, PBS with 0.9% NaCl, pH 8.5; read-out: Solubility pH 8.5
Ends that are not written are not given here.
Numbers only; they are read as µg/mL.

Short answer for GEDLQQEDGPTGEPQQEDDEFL [SEQ ID NO: 29] : solubility was 702

// sample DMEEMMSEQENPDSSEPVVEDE [SEQ ID NO: 30] , its solubility was 540

The recorded solubility for entry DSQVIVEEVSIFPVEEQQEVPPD [SEQ ID NO: 32] equals 433

solubility reported for this sequence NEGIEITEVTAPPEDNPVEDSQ [SEQ ID NO: 31] : 848

====

# Test Method Notes: solubility in phosphate buffer with/without 0.9% NaCl, pH serially lowered with acetic acid, concentration remaining in solution
# Assay type: physicochemical
# Applied Conditions: pH 7.5, PBS with 0.9% NaCl, pH 7.5; read-out: Solubility pH 7.5
Ends that are not written are not given here.
Provide the recorded solubility for the entries that follow.
Express your answer in µg/mL, writing the number without its unit.

// field: solubility; key: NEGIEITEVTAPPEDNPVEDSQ [SEQ ID NO: 31] ; value = 852

// sample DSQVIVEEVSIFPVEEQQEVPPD [SEQ ID NO: 32] , its solubility was 412

Briefly, solubility measured for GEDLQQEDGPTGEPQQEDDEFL [SEQ ID NO: 29] : 703

Record summary for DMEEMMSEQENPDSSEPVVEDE [SEQ ID NO: 30] : reported solubility = 555
